system: WHIM2 (cells of a triple-negative basal-like breast cancer xenograft); test: cell viability (% of vehicle); higher = less cytotoxic; conditions: 10 µM; 72 h;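 further: PDX cells carrying CMV promoter-driven luciferase, viability read as total photon flux per second by IVIS imaging following D-luciferin, vehicle control 0.1% DMSO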
Each entry below lists one item and its recorded cell viability value.
# answer = number (no unit)

# example entries with known answers
CC(NC(=O)C(O)C(C)C)C(=O)NC1C(=O)N(C)CCc2ccccc21 (stereo not drawn)    70
COc1cc(C2c3cc4c(cc3C(OC3OC5COC(C)OC5C(O)C3O)C3COC(=O)C23)OCO4)cc(OC)c1O (stereo not drawn) [Etoposide]    91.8
Cc1cc(=O)n(-c2ccccc2)n1C [Antipyrine]    106
O=C1OC(C(O)CO)C([O-])=C1O.[Na+] (stereo not drawn) [Sodium ascorbate]    115
CC1=C2N=C(C=C3N=C(C(C)=C4[N-]C(C)(C5N=C1C(C)(CCC(=O)NCC(C)OP(=O)([O-])OC1C(CO)OC(n6cnc7cc(C)c(C)cc76)C1O)C5CC(N)=O)C(C)(CC(N)=O)C4CCC(N)=O)C(C)(CC(N)=O)C3CCC(N)=O)C(C)(C)C2CCC(N)=O.[CH3-].[Co+3] (stereo not drawn) [Methylcobalamin]    91.3

*Q* # lookup: cell viability of COc1ccc2c(c1)c(CC(=O)O)c(C)n2C(=O)c1ccc(Cl)cc1 [Indomethacin]
*A* 92.1

*Q* What does the record list as cell viability for CC(O)C(=O)O.CC(O)C(=O)O.CN1CCN(c2ccc3c(c2)NC(=C2C(=O)N=c4cccc(F)c4=C2N)N3)CC1 [Dovitinib Dilactic acid] ?
*A* 52.2

*Q* # lookup: cell viability of CNC(=C[N+](=O)[O-])NCCSCc1csc(CN(C)C)n1 [Nizatidine]
*A* 96.6

* * *

test system: HCI13 (cells of an ER-positive luminal breast cancer xenograft); test: cell viability (% of vehicle); higher = less cytotoxic; details: 10 µM; 72 h
Counter-ions that a name gives are not always drawn.
PROPERTY_MEASURED: cell viability

These solved cases illustrate the format of a correct answer.
COc1cc2nc(N3CCN(C(=O)C4COc5ccccc5O4)CC3)nc(N)c2cc1OC.CS(=O)(=O)O (stereo unspecified) [Doxazosin Mesylate]    103
Cc1ccc(NC(=O)c2ccc(CN3CCN(C)CC3)cc2)cc1Nc1nc(-c2cccnc2)cs1    55.8
Cc1nc(C(=O)NCC(=O)O)c(O)c2ccc(Oc3ccccc3)cc12    113
Cc1ccsc1C(=CCCN1CCC[C@@H](C(=O)O)C1)c1sccc1C [Tiagabine hydrochloride]    96.1
COc1ccc(C2Sc3ccccc3N(CCN(C)C)C(=O)C2OC(C)=O)cc1.Cl (stereo unspecified) [Diltiazem HCl]    95.5
CC1COc2c(N3CCN(C)CC3)c(F)cc3c(=O)c(C(=O)O)cn1c23 (stereo unspecified)    186
O=C1C=CC=CC1=C1NC(=C2C=CC=CC2=O)N(c2ccc(C(=O)O)cc2)N1    62.9
FC(F)(F)c1ccc(C=Cc2nc(COc3ccc(CCCCn4ccnn4)cc3)co2)cc1    65.5
COc1ccc2[nH]cc(CCNC(C)=O)c2c1    108
CCC1(O)CC2CN(CCc3c([nH]c4ccccc34)C(C(=O)OC)(c3cc4c(cc3OC)N(C)C3C(O)(C(=O)OC)C(OC(C)=O)C5(CC)C=CCN6CCC43C65)C2)C1.O=S(=O)(O)O (stereo unspecified) [Vinblastine sulfate]    40.1

Now turn to the next compound.
*Q* Please look up its cell viability: Cc1ncc([N+](=O)[O-])n1CC(O)CCl (stereo unspecified)
*A* 111
